system: LHPP gene; test: High-throughput screening of saRNAs targeting LHPP promoter: LHPP mRNA by one-step RT-qPCR in Huh7 cells; format: cell-based, human; details: 10 nM saRNA, 72 hours, relative to control (Mock)
d = 2'-deoxy (DNA); r = 2'-OH (RNA)
ASSAY METRIC: Fold of changes in relative LHPP mRNA expression level (fold)
Your answer should be a plain number; it is taken to be in fold.

The examples below pair each entry with its known result.
RAG7-181: saRNA duplex; sense CUCAAUUUGCCUUUGACCUTT (SEQ ID NO: 97), antisense AGGUCAAAGGCAAAUUGAGTT (SEQ ID NO: 261) (sugars from the 5' end r19 d2, backbone not given here): 1.22
RAG7-691: saRNA duplex; sense UCCUAUGCAUCCUCAUCUATT (SEQ ID NO: 30), antisense UAGAUGAGGAUGCAUAGGATT (SEQ ID NO: 194) (sugars from the 5' end r19 d2, backbone not given here): 1.50

*Q* Look up Fold of changes in relative LHPP mRNA expression level for this substance: RAG7-34: saRNA duplex; sense GUUUGCACCCGGUCUUCUUTT (SEQ ID NO: 26), antisense AAGAAGACCGGGUGCAAACTT (SEQ ID NO: 190) (sugars from the 5' end r19 d2, backbone not given here)
*A* 1.51

The reported measurements were obtained from patent US20220096516A1.
